Provenance of the data: ChEMBL document CHEMBL5380795

- System: Escherichia coli
- assay: Antibacterial activity against Escherichia coli
- Assay type: functional
Bridge positions count the residues as written; N and C are the ends. Square brackets hold non-standard residues; d marks the D form. Peptide text beside a SMILES is read from it. * marks the point of attachment. Decanoyl(3R-OH) = CCCCCCC[C@@H](O)CC(=O)*; dDab = NCC[C@@H](N)C(=O)O; Dab = NCC[C@H](N)C(=O)O
reported-metric: MIC

[ask] # return recorded MIC for input CCCCCCC[C@@H](O)CC(=O)N[C@H](CCN)C(=O)N[C@H]1CCNC(=O)[C@H](CC(C)C)NC(=O)[C@H](CCN)NC(=O)[C@H](CCN)NC(=O)[C@H](CC(C)C)NC(=O)[C@@H](Cc2ccccc2)NC(=O)[C@H](CCN)NC1=O ({Decanoyl(3R-OH)}-[dDab][Dab][Dab][dF]L[Dab][Dab]L; lactam 2-C)
[reply] 0.1 µg/mL

[ask] # return recorded MIC for input `CCCCCCC[C@@H](O)CC(=O)N[C@H](CCN)C(=O)N[C@H]1CCNC(=O)[C@H](CC(C)C)NC(=O)[C@H](CCN)NC(=O)[C@H](CCN)NC(=O)[C@H](Cc2ccccc2)NC(=O)[C@@H](CC(C)C)NC(=O)[C@H](CCN)NC1=O`
[reply] 0.1 µg/mL
